The values you see were collected from the supplement of paper PMC11417369.

# Test system: PfAP2-LT AP2 domain (GST-tagged)
# Assay Remarks: gcPBM binding intensity (ln(normalized median fluorescence intensity)); higher = stronger DNA binding
Whole data set: some 25,000 sequences, median “ln(normalized median fluorescence intensity)” near 8.9, cut for the highest 2% near 10. What follows is part of a selection rich in the highest values, with near analogues and random picks from the rest.

{"columns": ["Monomer Sequence", "gcPBM binding intensity (ln)"],
 "data": [
  ["TAAAAATGTAAACACACACACATAAATATATTTTAT [CACACA_site5397]", 9.45],
  ["AATAGAACAAATAAAACACACACATATATATATATA [CACACA_site8893]", 9.76],
  ["TTTAATTTGTTATACACACACAAAAAAAATTATAAA [CACACA_site3937]", 8.93],
  ["TCTCATAGTAAACACACACACACACCCACATATATA [CACACA_site5034]", 9.97],
  ["TCTCATAGGAAACACACACACACACCCACATATATA [CACACA_site1738]", 10.1],
  ["TACAAATATGGACACACACACATATTTATATTTATA [CACACA_site6420]", 9.73],
  ["TTTCCCATAGGAAAAACACACATATATTATATATAA [CACACA_site1981]", 8.57],
  ["AACATATAAAAATGTGCACACACACCCATATATATA [CACACA_site1525]", 9.79],
  ["TTTGTAAAACTATATTGTACTTTTATATATCTACAA [XGTACX_site5507]", 8.56]
]}

* * *

# System: PfAP2-LT AP2 domain (GST-tagged)
# Assay Remarks: gcPBM binding intensity (ln(normalized median fluorescence intensity)); higher = stronger DNA binding
Over roughly 25,000 sequences, “ln(normalized median fluorescence intensity)” has its median near 8.9; the highest 2% begin near 10. The full list was thinned out, with the highest values kept by preference.

{"columns": ["Monomer Sequence", "gcPBM binding intensity (ln)"],
 "data": [
  ["ATAGGTGAATACTAATATAAATTCAAGAGGGAAAAG [CACACA_negctrl_site720]", 8.9],
  ["TGAACACGCACAAATACACACAAAAAAAATAAATAA [CACACA_site6257]", 9.31],
  ["AACATAAGTAAGAATACATGCGGAAATTATATAGAA [TGCATGCA_site112]", 9.03],
  ["AAAAAAAAAAGACACACACACACATACACATACATA [CACACA_site7362]", 9.97],
  ["AAAAAAATATATAAATGTACATATTGTTTAATTAAT [XGTACX_site3794]", 8.7],
  ["TCTCATAGTAGACACACACACACACGCACATATATA [CACACA_site6916]", 10.1],
  ["AACATATATAATATTTGTACTTATATACAAAATATG [XGTACX_site7502]", 8.64],
  ["ATATATATATATATATGTACATATATATATAATTTT [XGTACX_site4146]", 9.34],
  ["ATGAATAAAAAAGGTGGTACATATATATATATATAT [XGTACX_site7893]", 9.82]
]}

* * *

# Tested on: PfAP2-LT AP2 domain (GST-tagged)
# Assay Remarks: gcPBM binding intensity (ln(normalized median fluorescence intensity)); higher = stronger DNA binding
Whole data set: some 25,000 sequences, median “ln(normalized median fluorescence intensity)” near 8.9, cut for the highest 2% near 10. This is one part of a sample in which the highest values are shown more often than they occur.
Use Y when the recorded gcPBM binding intensity (ln) is no lower than 9; use N when it is lower.

{"columns": ["Monomer Sequence", "Label"],
 "data": [
  ["GTATAATAGAAACACACACACACACCCAAAAAAAAA [CACACA_site2010]", "Y"],
  ["ATAATACGAATTTGTAGTACATTTATAATAACATGA [XGTACX_site2614]", "N"],
  ["TAGTATAATATGAACACACACACACGCACAAAAAAA [CACACA_site7035]", "Y"],
  ["ATGGACATTTTATAAATCACAATGGATATTTTATAA [CACACA_negctrl_site1830]", "N"],
  ["TAGTATAATATGAACACACACACACCGACAAAAAAA [CACACA_site5151]", "Y"],
  ["ATAATATGAAAACACACACACACACCCAAAAAAAAA [CACACA_site2011]", "Y"],
  ["GTATAATATGAACACACACACACACCCAAAAAAAAA [CACACA_site5152]", "Y"]
]}

* * *

Let's look at some sequences and their measured gcPBM binding intensity (ln).
# Test system: PfAP2-LT AP2 domain (GST-tagged)
# Assay Remarks: gcPBM binding intensity (ln(normalized median fluorescence intensity)); higher = stronger DNA binding
The full ranking holds about 25,000 sequences; the median of “ln(normalized median fluorescence intensity)” is about 8.9, and the highest 2% start at about 10. Shown is part of a subset that was picked to be rich in the highest values.
Measure: gcPBM binding intensity (ln)

{"columns": ["Monomer Sequence", "Result"],
 "data": [
  ["AAAAAATCACGACACACACACACACTAAAAAAAAAA [CACACA_site6792]", 10.1],
  ["AGTATACATATATATACACACATATATATATATATA [CACACA_site300]", 9.83],
  ["ATTTGGCATGGACACACACACACACCGACAGACATA [CACACA_site4491]", 10],
  ["GGTATACGCAAGTATACACACATATATATATATATA [CACACA_site3240]", 10],
  ["AAAATCACAAGACACACACACACAAAAAAAAAAAAA [CACACA_site6791]", 9.94],
  ["CACATACAGACATACACACATACACATATACGCATA [CACACA_site1745]", 9.61],
  ["ACATCAAGCGGACACACACACACACCGACAGACACA [CACACA_site4361]", 10.2],
  ["ATTATAGACACGCGCACACACAACAAAAAAAAAAAA [CACACA_site9180]", 9.73],
  ["ATTTTAACCAATTATTGTACTTGGTTATTCTTTTTT [XGTACX_site7453]", 8.94]
]}

* * *

# Tested on: PfAP2-LT AP2 domain (GST-tagged)
# Assay Remarks: gcPBM binding intensity (ln(normalized median fluorescence intensity)); higher = stronger DNA binding
Whole data set: some 25,000 sequences, median “ln(normalized median fluorescence intensity)” near 8.9, cut for the highest 2% near 10. For the sample, the highest values were picked, then their nearest neighbours and some sequences at random.
Use True when the recorded gcPBM binding intensity (ln) is no lower than 9; use False when it is lower.

{"columns": ["Monomer Sequence", "Label"],
 "data": [
  ["ATATATATATATATATATATATATATATTTATATAT [GTGCAC_negctrl_site180]", "True"],
  ["TCTATACCTATTCTTACACACATATGTATTTATATA [CACACA_site4475]", "True"],
  ["AAAAAAAAAAAACATACACACATACATACAGATATA [CACACA_site4681]", "True"],
  ["TATTAATCCTTTTGCTTGGAAACATTCAAAAGGAAG [CACACA_negctrl_site1129]", "False"],
  ["AAATAAAATAAAACAACACACACGAATGTATAAATA [CACACA_site885]", "True"],
  ["ATAAAATGAACAAACACACACACATATATATATATA [CACACA_site2402]", "True"],
  ["TTTATAAACAAATGAACACACAAACATATATATATA [CACACA_site5713]", "True"],
  ["AATAAGTATACACATACACACACACCCAAAAAAAAA [CACACA_site8034]", "True"],
  ["GGTGATAATAAGCATACACACACACCCAAAAAAAAA [CACACA_site8137]", "True"],
  ["ATTTTTTTTGTTTATTCTTATGTGGTTATTAAATTA [CACACA_negctrl_site1000]", "False"],
  ["ATATATATATATATATGTACATATAATTTTTTTTTT [XGTACX_site6948]", "True"],
  ["TGATAATAAGCATACACACACACACCCAAAAAAAAA [CACACA_site721]", "True"],
  ["AACACATACAGACACACACACAAAAAAAAAAAAAAA [CACACA_site6322]", "True"],
  ["CAATAATATATATATTGTACATTTTTTTTTATTATT [XGTACX_site3149]", "False"]
]}
